List of % inhibition of SMAD7 mRNA expression values.
# System: human SMAD7 mRNA
# assay-summary: Dose-dependent inhibition of human SMAD7 mRNA expression in Hep3B cells (Example 3, Study 1 and 2)
# Type: cell-based
# conditions-used: 5000.0 nM, electroporation, approximately 16 hours, Study 1
# Protocol: The antisense oligonucleotides were tested in a series of experiments that had similar culture conditions as described below. Cells were plated at a density of 20,000 cells per well and transfected using electroporation with 0.31 μM, 1.25 μM, 5.00 μM, or 20.00 μM concentrations of antisense oligonucleotide, as specified in the Tables below. […] After a treatment period of approximately 16 hours, RNA was isolated from the cells and SMAD7 mRNA levels were measured by quantitative real-time PCR. […]
Strand notation (5' to 3'): a small letter for the sugar, then the base; units joined by * are phosphorothioate-linked, units joined directly phosphodiester-linked; [ ] holds rarer units or linkages, { } end groups; capitals alone tell only the bases. e = 2'-O-(2-methoxyethyl) (MOE); [5mC] = 5-methylcytosine; d = 2'-deoxy (DNA)
quantity-kind: % inhibition of SMAD7 mRNA expression (%)

[[record]]
substance = "771576 (antisense eG*eG*eG*e[5mC]*eA*dG*dG*dA*dG*dA*dG*dA*d[5mC]*dA*d[5mC]*e[5mC]*eG*e[5mC]*eT*eT) [compound 771576]"
test_result = 55

[[record]]
substance = "771869 (antisense eA*eG*e[5mC]*e[5mC]*eA*dA*dG*dT*dG*dT*d[5mC]*d[5mC]*dA*dT*d[5mC]*eA*eA*eG*e[5mC]*eA) [compound 771869]"
test_result = 24

[[record]]
substance = "771944 (antisense eG*eG*eT*eA*eA*dT*dT*dT*dT*d[5mC]*d[5mC]*dT*d[5mC]*dA*dA*e[5mC]*eA*eG*eG*e[5mC]) [compound 771944]"
test_result = 35

[[record]]
substance = "771793 (antisense eA*eA*eG*eT*e[5mC]*d[5mC]*d[5mC]*dT*dA*dA*d[5mC]*dG*dA*d[5mC]*d[5mC]*eA*eG*eG*e[5mC]*e[5mC]) [compound 771793]"
test_result = 38

[[record]]
substance = "771733 (antisense eT*eG*eA*e[5mC]*eA*dG*d[5mC]*d[5mC]*dA*d[5mC]*dA*dA*dG*dT*d[5mC]*eA*e[5mC]*eA*eA*e[5mC]) [compound 771733]"
test_result = 26

[[record]]
substance = "771849 (antisense e[5mC]*eT*eA*eG*eG*d[5mC]*dT*dG*dG*dT*d[5mC]*dA*d[5mC]*dT*dT*e[5mC]*e[5mC]*eA*e[5mC]*eT) [compound 771849]"
test_result = 10


---

List of % inhibition of SMAD7 mRNA expression values.
# Tested on: human SMAD7 mRNA
# assay-summary: Dose-dependent inhibition of human SMAD7 mRNA expression in Hep3B cells (Example 3, Study 1 and 2)
# Assay type: cell-based
# conditions-used: 6670.0 nM, electroporation, approximately 16 hours, Study 2
# Experimental: The antisense oligonucleotides were tested in a series of experiments that had similar culture conditions as described below. Cells were plated at a density of 20,000 cells per well and transfected using electroporation with 0.31 μM, 1.25 μM, 5.00 μM, or 20.00 μM concentrations of antisense oligonucleotide, as specified in the Tables below. […] After a treatment period of approximately 16 hours, RNA was isolated from the cells and SMAD7 mRNA levels were measured by quantitative real-time PCR. […]
Strand notation (5' to 3'): a small letter for the sugar, then the base; units joined by * are phosphorothioate-linked, units joined directly phosphodiester-linked; [ ] holds rarer units or linkages, { } end groups; capitals alone tell only the bases. k = constrained ethyl (cEt); [5mC] = 5-methylcytosine; d = 2'-deoxy (DNA)
quantity-kind: % inhibition of SMAD7 mRNA expression (%)

[[record]]
substance = "800048 (antisense kT*kG*kG*dA*dA*dA*dG*dG*dA*dA*dG*dA*d[5mC]*kT*k[5mC]*kG) [compound 800048]"
test_result = 58

[[record]]
substance = "799318 (antisense kG*kT*kG*dG*dA*dT*dT*dT*dG*dA*dA*dA*dA*kG*kG*kG) [compound 799318]"
test_result = 70

[[record]]
substance = "798987 (antisense kA*kA*kT*dG*dA*dT*dG*dA*d[5mC]*d[5mC]*dG*d[5mC]*d[5mC]*k[5mC]*k[5mC]*k[5mC]) [compound 798987]"
test_result = 8

[[record]]
substance = "799878 (kG*k[5mC]*k[5mC]*d[5mC]*d[5mC]*d[5mC]*d[5mC]*dT*d[5mC]*d[5mC]*d[5mC]*d[5mC]*dG*kT*kG*k[5mC]; antisense) [compound 799878]"
test_result = 68

[[record]]
substance = "799686 (antisense kG*kA*kG*dA*dT*dT*dT*dT*dA*dA*dA*dT*dG*k[5mC]*kT*kG) [compound 799686]"
test_result = 36

[[record]]
substance = "790732 (kG*k[5mC]*kT*dT*dA*dT*dT*dT*d[5mC]*dA*dT*dG*dT*kG*kG*kT; antisense) [compound 790732]"
test_result = 88

[[record]]
substance = "798662 (kG*k[5mC]*kT*d[5mC]*d[5mC]*dG*dG*d[5mC]*dT*dG*d[5mC]*d[5mC]*d[5mC]*k[5mC]*kA*k[5mC]; antisense) [compound 798662]"
test_result = 22

[[record]]
substance = "830137 (antisense kA*kT*kG*dA*dA*dA*dG*dT*dA*d[5mC]*dA*dA*dT*k[5mC]*kT*k[5mC]) [compound 830137]"
test_result = 63

[[record]]
substance = "799718 (antisense k[5mC]*kT*kG*d[5mC]*dT*dA*dG*dG*dG*dA*dT*dA*d[5mC]*kT*kG*kA) [compound 799718]"
test_result = 66

[[record]]
substance = "799921 (antisense k[5mC]*kT*kA*dA*dT*dT*dA*dG*dT*dG*dA*d[5mC]*dT*kG*kT*kG) [compound 799921]"
test_result = 55

[[record]]
substance = "799321 (antisense kA*kT*k[5mC]*dT*dG*dG*dA*d[5mC]*dA*dG*dT*d[5mC]*dT*kG*k[5mC]*kT) [compound 799321]"
test_result = 36

[[record]]
substance = "799596 (kA*k[5mC]*kT*d[5mC]*dT*dG*dA*dA*d[5mC]*dG*dG*dA*dA*kA*kG*kA; antisense) [compound 799596]"
test_result = 66

[[record]]
substance = "829776 (antisense kG*k[5mC]*kG*dA*dG*dT*dA*dG*dG*dA*d[5mC]*dG*dA*kG*kG*kG) [compound 829776]"
test_result = 66

[[record]]
substance = "798824 (kG*kA*k[5mC]*dA*d[5mC]*dA*dG*dT*dA*dG*dA*dG*d[5mC]*k[5mC]*kT*k[5mC]; antisense) [compound 798824]"
test_result = 7


---

# System: human SMAD7 mRNA
# assay-summary: Antisense inhibition of human SMAD7 mRNA expression in Hep3B cells by 3-10-3 cEt gapmers, 10,000 nM, electroporation (Example 2)
# Assay type: cell-based
# conditions-used: Hep3B cells, electroporation with 10,000 nM antisense oligonucleotide, approximately 24 hours, SMAD7 mRNA by RT-PCR (RTS5062), relative to untreated control cells
Strand notation (5' to 3'): a small letter for the sugar, then the base; units joined by * are phosphorothioate-linked, units joined directly phosphodiester-linked; [ ] holds rarer units or linkages, { } end groups; capitals alone tell only the bases. k = constrained ethyl (cEt); [5mC] = 5-methylcytosine; d = 2'-deoxy (DNA)
Label class 1 when % Inhibition >= 60%; otherwise class 0.

[[record]]
substance = "799513 (antisense kT*kA*k[5mC]*d[5mC]*dT*dT*dT*dA*dG*dA*dT*dT*dG*k[5mC]*kA*kT) [compound 799513]"
measured_target = "human SMAD7 mRNA"
class = "class 1"

[[record]]
substance = "799426 (antisense kG*k[5mC]*kT*dT*dA*dA*dA*dT*dT*dA*dT*dA*dG*k[5mC]*kA*kA) [compound 799426]"
measured_target = "human SMAD7 mRNA"
class = "class 0"

[[record]]
substance = "830150 (antisense k[5mC]*kA*kG*dT*dG*dG*dT*dG*dA*d[5mC]*d[5mC]*dT*d[5mC]*k[5mC]*k[5mC]*kT) [compound 830150]"
measured_target = "human SMAD7 mRNA"
class = "class 0"

[[record]]
substance = "790510 (k[5mC]*k[5mC]*k[5mC]*d[5mC]*dT*dG*dA*dG*dG*dT*dA*dG*dA*kT*k[5mC]*kA; antisense) [compound 790510]"
measured_target = "human SMAD7 mRNA"
class = "class 0"

[[record]]
substance = "798714 (antisense kG*kG*k[5mC]*d[5mC]*dG*d[5mC]*d[5mC]*dG*d[5mC]*d[5mC]*dA*d[5mC]*d[5mC]*kG*kG*k[5mC]) [compound 798714]"
measured_target = "human SMAD7 mRNA"
class = "class 0"

[[record]]
substance = "798698 (antisense kA*kG*k[5mC]*dT*d[5mC]*dG*d[5mC]*d[5mC]*dT*d[5mC]*d[5mC]*dT*d[5mC]*k[5mC]*kT*k[5mC]) [compound 798698]"
measured_target = "human SMAD7 mRNA"
class = "class 0"

[[record]]
substance = "830059 (kG*kG*kG*d[5mC]*d[5mC]*dA*d[5mC]*d[5mC]*d[5mC]*dA*dG*dT*dG*kA*kG*k[5mC]; antisense) [compound 830059]"
measured_target = "human SMAD7 mRNA"
class = "class 0"

[[record]]
substance = "798720 (antisense kG*kG*k[5mC]*dA*dG*d[5mC]*dA*dT*d[5mC]*d[5mC]*dA*dG*d[5mC]*k[5mC]*k[5mC]*kT) [compound 798720]"
measured_target = "human SMAD7 mRNA"
class = "class 0"

[[record]]
substance = "799471 (antisense k[5mC]*kA*k[5mC]*dA*dG*dA*dA*dA*dA*dG*d[5mC]*dT*d[5mC]*k[5mC]*kG*k[5mC]) [compound 799471]"
measured_target = "human SMAD7 mRNA"
class = "class 1"

[[record]]
substance = "830075 (kT*k[5mC]*kA*dG*dG*dG*dT*dG*dT*d[5mC]*dA*dG*d[5mC]*k[5mC]*k[5mC]*kA; antisense) [compound 830075]"
measured_target = "human SMAD7 mRNA"
class = "class 0"

[[record]]
substance = "830107 (kT*k[5mC]*kA*dT*dT*dA*dA*dG*d[5mC]*d[5mC]*d[5mC]*dG*d[5mC]*kT*k[5mC]*kT; antisense) [compound 830107]"
measured_target = "human SMAD7 mRNA"
class = "class 0"

[[record]]
substance = "799329 (kG*kT*kA*dT*dG*d[5mC]*dA*d[5mC]*dA*d[5mC]*dT*d[5mC]*dT*k[5mC]*k[5mC]*k[5mC]; antisense) [compound 799329]"
measured_target = "human SMAD7 mRNA"
class = "class 0"

[[record]]
substance = "830131 (antisense k[5mC]*k[5mC]*k[5mC]*dA*d[5mC]*d[5mC]*dT*d[5mC]*d[5mC]*dG*dA*dG*dG*k[5mC]*kA*k[5mC]) [compound 830131]"
measured_target = "human SMAD7 mRNA"
class = "class 1"

